Reported collision cross section values for the following sequences.
Test: collision cross section of modified peptide (TIMS, N2, iRT-aligned); higher = larger / more extended gas-phase ion
Conditions: charge state: 2; modification: Glutarylation
Please reply with the bare figure in Å² and do not write the unit itself.

SLGEPAAGEGSAKR [_SLGEPAAGEGSAK(Gluratylation)R_]
384.54
VLDSGAPIKIPVGPETLGR [_VLDSGAPIK(Gluratylation)IPVGPETLGR_]
465.83
IHVQSSSDSSDEPAEKR [_IHVQSSSDSSDEPAEK(Gluratylation)R_]
455.23
SLEEEGAAHSGKR [_SLEEEGAAHSGK(Gluratylation)R_]
420.5
GETASKLQSEISR [_GETASK(Gluratylation)LQSEISR_]
403.5

*Q* Could you share which collision cross section value was measured for LQDVSGQLSSSKK [_LQDVSGQLSSSK(Gluratylation)K_] ?
*A* 404.29

*Q* Could you share which collision cross section value was measured for LTEKELAEAASK [_LTEK(Gluratylation)ELAEAASK_] ?
*A* 395.13

*Q* Could you share which collision cross section value was measured for SGFGKFER [_SGFGK(Gluratylation)FER_] ?
*A* 340.69

*Q* Could you share which collision cross section value was measured for GEVGAGAGPGAQAGPSAKR [_GEVGAGAGPGAQAGPSAK(Gluratylation)R_] ?
*A* 425.64

*Q* Could you share which collision cross section value was measured for VFIGNLNTLVVKK [_VFIGNLNTLVVK(Gluratylation)K_] ?
*A* 424.62

###

Assay: collision cross section of modified peptide (TIMS, N2, iRT-aligned); higher = larger / more extended gas-phase ion
Conditions: charge state: 2; modification: Butyryl
Property Label: collision cross section (Å²)
Please reply with the bare figure in Å² and do not write the unit itself.

In the examples that follow, each entry is paired with its recorded collision cross section.
FSAYIKNSNPALNDNLEK [_FSAYIK(Butyryl)NSNPALNDNLEK_]
487.55
SKHLQEQLNELK [_SK(Butyryl)HLQEQLNELK_]
422.39
SGFGKFER [_SGFGK(Butyryl)FER_]
337.09
LQDVSGQLSSSKK [_LQDVSGQLSSSK(Butyryl)K_]
401.39
VNIGQGSHPQKVK [_VNIGQGSHPQK(Butyryl)VK_]
432.28

*Q* Could you share which collision cross section value was measured for LAEEENKAK [_LAEEENK(Butyryl)AK_] ?
*A* 353.86

###

Reported collision cross section values for the following sequences.
Assay: collision cross section of unmodified peptide (TIMS, N2, iRT-aligned); higher = larger / more extended gas-phase ion
Details: charge state: 3
Please reply with the bare figure in Å² and do not write the unit itself.

VEPIHAVVLPRGK
483.53
TVTNAVVTVPAYFNDSQR
576.65
RLPNVHGR
419.7
GEPGQGLRGLQGPPGK
443.35

*Q* Could you share which collision cross section value was measured for TLTPASSPVSSPSKHGDR ?
*A* 512.67

*Q* Could you share which collision cross section value was measured for VDIDVPDVNIEGPDAKLK ?
*A* 542.58

*Q* Could you share which collision cross section value was measured for IVFSGNLFQHQEDSKK ?
*A* 531.43

*Q* Could you share which collision cross section value was measured for DKALPLEAEVAPVK ?
*A* 507.63

*Q* Could you share which collision cross section value was measured for DLGKFQVATDALK ?
*A* 498.11

###

Assay: collision cross section of modified peptide (TIMS, N2, iRT-aligned); higher = larger / more extended gas-phase ion
Conditions: charge state: 2; modification: GlyGly (K)
Property Label: collision cross section (Å²)
Please reply with the bare figure in Å² and do not write the unit itself.

*Q* Could you share which collision cross section value was measured for VFSIISSEKELK [_VFSIISSEK(GlyGly (K))ELK_] ?
*A* 424.98

*Q* Could you share which collision cross section value was measured for GSLEKGSPEDK [_GSLEK(GlyGly (K))GSPEDK_] ?
*A* 367.44

*Q* Could you share which collision cross section value was measured for GGPGSTLSFVGKR [_GGPGSTLSFVGK(GlyGly (K))R_] ?
*A* 403.34

*Q* Could you share which collision cross section value was measured for FSAYIKNSNPALNDNLEK [_FSAYIK(GlyGly (K))NSNPALNDNLEK_] ?
*A* 506.19

*Q* Could you share which collision cross section value was measured for DYSAPVNFISAGLKK [_DYSAPVNFISAGLK(GlyGly (K))K_] ?
*A* 449.5

*Q* Could you share which collision cross section value was measured for VNIGQGSHPQKVK [_VNIGQGSHPQK(GlyGly (K))VK_] ?
*A* 422.43

*Q* Could you share which collision cross section value was measured for VGTASVLQPVKK [_VGTASVLQPVK(GlyGly (K))K_] ?
*A* 404.53

*Q* Could you share which collision cross section value was measured for ANLEKAQAELVGTADEATR [_ANLEK(GlyGly (K))AQAELVGTADEATR_] ?
*A* 487.2

*Q* Could you share which collision cross section value was measured for SLEEEGAAHSGKR [_SLEEEGAAHSGK(GlyGly (K))R_] ?
*A* 418.89

*Q* Could you share which collision cross section value was measured for VNVEAPDVNLEGLGGKLK [_VNVEAPDVNLEGLGGK(GlyGly (K))LK_] ?
*A* 470.77

*Q* Could you share which collision cross section value was measured for YEEIVKEVSTYIK [_YEEIVK(GlyGly (K))EVSTYIK_] ?
*A* 459.86

*Q* Could you share which collision cross section value was measured for VGLQVVAVKAPGFGDNR [_VGLQVVAVK(GlyGly (K))APGFGDNR_] ?
*A* 471.7

*Q* Could you share which collision cross section value was measured for ISALQGKLSK [_ISALQGK(GlyGly (K))LSK_] ?
*A* 369.61

*Q* Could you share which collision cross section value was measured for SDSGKPYYYNSQTK [_SDSGK(GlyGly (K))PYYYNSQTK_] ?
*A* 428.35

*Q* Could you share which collision cross section value was measured for SPSDSGYSYETIGKTTK [_SPSDSGYSYETIGK(GlyGly (K))TTK_] ?
*A* 483.23

*Q* Could you share which collision cross section value was measured for LGNDFHTNKR [_LGNDFHTNK(GlyGly (K))R_] ?
*A* 384.34

*Q* Could you share which collision cross section value was measured for VGEFSGANKEK [_VGEFSGANK(GlyGly (K))EK_] ?
*A* 372.84

*Q* Could you share which collision cross section value was measured for INNFSADIKDSK [_INNFSADIK(GlyGly (K))DSK_] ?
*A* 406.34

###

Assay: collision cross section of modified peptide (TIMS, N2, iRT-aligned); higher = larger / more extended gas-phase ion
Details: charge state: 3; modification: Acetyl (K)
Outcome: fulfilled for collision cross section of at least 500 Å²; not fulfilled for anything lower.

Record excerpt, results attached:
SSGPGGQNVNKVNSK [_SSGPGGQNVNK(Acetyl (K))VNSK_]
not fulfilled
GTITVSAQELKDNR [_GTITVSAQELK(Acetyl (K))DNR_]
not fulfilled
SSFAYKDQNENR [_SSFAYK(Acetyl (K))DQNENR_]
not fulfilled
LLFSNTAAQKLR [_LLFSNTAAQK(Acetyl (K))LR_]
not fulfilled

Shifting focus to the sequence that follows.
*Q* For this sequence, is measured collision cross section 500 Å² or higher? TFGKAAGPSLSHTSGGTQSK [_TFGK(Acetyl (K))AAGPSLSHTSGGTQSK_]
*A* fulfilled

###

Experiment: collision cross section of unmodified peptide (TIMS, N2, iRT-aligned); higher = larger / more extended gas-phase ion
Settings: charge state: 2
Property Label: collision cross section (Å²)
Please reply with the bare figure in Å² and do not write the unit itself.

In the examples that follow, each entry is paired with its recorded collision cross section.
PGPRGQR
296.23
LAPEYEAAATR
358.54
TLQKQSVVYGGK
390.15
TQAYQDQKPGTSGLR
425.76
GDIGETGVPGAEGPR
381.04

*Q* Could you share which collision cross section value was measured for VPGALAAAKAAK ?
*A* 365.46

*Q* Could you share which collision cross section value was measured for VVDLLAPYAK ?
*A* 358.2

*Q* Could you share which collision cross section value was measured for IYHPNVDK ?
*A* 337.77

*Q* Could you share which collision cross section value was measured for GLPGPPGPQGESR ?
*A* 356.03

*Q* Could you share which collision cross section value was measured for GITGKPGPK ?
*A* 312.13

*Q* Could you share which collision cross section value was measured for THLGEALAPLSK ?
*A* 380.02

*Q* Could you share which collision cross section value was measured for GEPGIPAIPGIR ?
*A* 347.87

###

Assay: collision cross section of modified peptide (TIMS, N2, iRT-aligned); higher = larger / more extended gas-phase ion
Settings: charge state: 3; modification: Dimethyl (K)
Property Label: collision cross section (Å²)
Please reply with the bare figure in Å² and do not write the unit itself.

GTITVSAQELKDNR [_GTITVSAQELK(Dimethyl (K))DNR_]
475.47

*Q* Could you share which collision cross section value was measured for SNEEGSEEKGPEVR [_SNEEGSEEK(Dimethyl (K))GPEVR_] ?
*A* 467.17

*Q* Could you share which collision cross section value was measured for INNFSADIKDSK [_INNFSADIK(Dimethyl (K))DSK_] ?
*A* 455.06

*Q* Could you share which collision cross section value was measured for IGNSYFKEEK [_IGNSYFK(Dimethyl (K))EEK_] ?
*A* 447.26

*Q* Could you share which collision cross section value was measured for VNALKNLQVK [_VNALK(Dimethyl (K))NLQVK_] ?
*A* 421.1

*Q* Could you share which collision cross section value was measured for VGVEVPDVNIEGPEGKLK [_VGVEVPDVNIEGPEGK(Dimethyl (K))LK_] ?
*A* 540.33

*Q* Could you share which collision cross section value was measured for DAIHFYNKSLAEHR [_DAIHFYNK(Dimethyl (K))SLAEHR_] ?
*A* 497.01
